Origin of values: PubChem BioAssay (NCI)

Test system: SNB-75 CNS
Experiment: NCI-60 one-dose screen, 48 h
Conditions: 10 µM unless noted
About 83,000 compounds went through this panel and 20% of them were active in at least one assay; those are over-represented in the sample as a whole. The source made the active and inactive calls. How the source made its calls: active means growth percent below 10; inactive means the rest.
Outcomes: class 1 (active), class 0 (inactive)

- Compound: "CCCn1nc(-c2ccccc2)c2c(-c3ccccc3)onc2c1=O"
  Cat: "class 0"
- Compound: "c1ccc(-c2oc3ccccc3c2-c2ccccc2)cc1"
  Cat: "class 0"
- Compound: "CCCCCCCCN(CCCCCCCC)C(=N)c1ccnc2ccccc12"
  Cat: "class 1"
- Compound: "CCn1nc(C#Cc2c(C)ccc3c(Nc4ccc(Cl)cc4)nccc23)c2c(N)ncnc21"
  Cat: "class 1"
- Compound: "COc1cc(-c2cccc([N+](=O)[O-])c2)c(-c2nc(-c3ccccc3)c(-c3ccccc3)n2C2CC2)cc1OC"
  Cat: "class 0"
- Compound: "N[C@@H]1CCC[C@H]1NCCCCN1C(=O)c2cccc3cccc(c23)C1=O"
  Cat: "class 0"
- Compound: "O=C1Nc2ccccc2/C1=N/N=C/c1ccc(OC2OC(CO)C(O)C(O)C2O)cc1 (centres undefined)"
  Cat: "class 0"
- Compound: "CS(=O)(=O)c1ccc(-c2nc3cc(Cl)ccc3n2CC(=O)N/N=C/c2ccc(Cl)cc2)cc1"
  Cat: "class 0"
- Compound: "N#Cc1c(NC(=O)c2ccc(Br)cc2)sc2c1CCCC2"
  Cat: "class 0"
- Compound: "COc1ccc(Cn2cnc3cc(C(=O)Nc4cccc5ccccc45)ccc32)c(OC)c1"
  Cat: "class 0"
- Compound: "Cc1ccc(-n2nnc(C3=NCCc4c3[nH]c3ccc(Cl)cc43)c2C)cc1"
  Cat: "class 0"
- Compound: "CCN(CC)CCCNC(=O)c1ccc(N)cc1O"
  Cat: "class 0"
- Compound: "COc1ccc(-n2ncn(CCCCCCn3cnn(-c4ccc(OC)cc4)c3=O)c2=O)cc1"
  Cat: "class 0"
- Compound: "O=C1CSC(c2ccccc2O)N1c1nnc(Cn2cnnc2)o1 (centres undefined)"
  Cat: "class 0"
- Compound: "O=C(/C=C/C12c3ccccc3C(c3ccccc31)C1C(=O)N(c3ccccc3)C(=O)C12)c1ccc(Cl)cc1 (centres undefined)"
  Cat: "class 0"
- Compound: "CCn1c(Sc2nnc(NC(C)=O)s2)nc2c1c(=O)n(C)c(=O)n2C"
  Cat: "class 0"
- Compound: "CN(C)c1ccc(/C=N/NC(=O)COc2cc(=O)n(C)c3ccccc23)cc1"
  Cat: "class 0"
- Compound: "CCOC(=O)c1sc(-c2ccc(OS(=O)(=O)c3ccc(C(C)(C)C)cc3)c(C=O)c2)nc1C"
  Cat: "class 0"
- Compound: "CN(CCCCCCCCNc1ccnc2ccccc12)Cc1ccc(-c2ccc(-c3ccc(C#N)cc3)s2)cc1"
  Cat: "class 0"
- Compound: "O=C(/C=C/C12c3ccccc3C(c3ccccc31)C1C(=O)NC(=O)C12)c1ccccc1 (centres undefined)"
  Cat: "class 1"
- Compound: "CC[C@]1(O)C[C@H]2CN(CCc3c([nH]c4ccccc34)[C@@](C(=O)OC)(c3cc4c(cc3OC)N(C=O)[C@H]3[C@@](O)(C(=O)OC)[C@H](OC(C)=O)[C@]5(CC)C=CCN6CC[C@]43[C@@H]65)C2)C1"
  Cat: "class 0"
- Compound: "OCCCCc1nccc2c1[nH]c1ccccc12"
  Cat: "class 0"
- Compound: "COc1cc2c(cc1OC)-c1ccc3cc4c(cc3c1N(CCN(C)C)C2)OCO4"
  Cat: "class 1"
- Compound: "Cc1ccc(S(=O)(=O)NN/C(N)=N\\S(=O)(=O)c2cc(C)c(Cl)cc2SCc2ccccc2)cc1"
  Cat: "class 0"
- Compound: "CC(C)(C)c1ccc(C(=O)Nc2sc3c(c2C(N)=O)CCC(=O)C3)cc1"
  Cat: "class 1"
- Compound: "c1ccc2[nH]c(SSc3nc4ncncc4[nH]3)nc2c1"
  Cat: "class 0"
- Compound: "Cc1[nH]c(-c2nc3ccccc3[nH]2)c(C)c1C(=O)NNc1ccc(Cl)cc1"
  Cat: "class 0"
- Compound: "O=c1ccn(C2OC(F)(CO)C(O)C2F)c(=O)[nH]1 (centres undefined)"
  Cat: "class 0"
- Compound: "COc1ccccc1C(=O)NC(=S)Nc1ccc(-c2nc3ccccc3[nH]2)cc1"
  Cat: "class 1"
- Compound: "Cc1cc(N(CCCNc2ccnc3cc(Cl)ccc23)Cc2ccccn2)nc(N2CCOCC2)n1"
  Cat: "class 0"
- Compound: "O=c1[nH]c(NCc2nnnn2-c2ccc(Br)cc2)nc2sc3c(c12)CCCC3"
  Cat: "class 0"
- Compound: "O=C(NC1CCOCC1)c1ccc2c(c1)CN(c1ncc(Cc3cccc(-n4cccn4)c3)s1)CC2"
  Cat: "class 0"
- Compound: "O=c1[nH]c(=O)n(C2CC(O)C(CO)O2)cc1CO (centres undefined)"
  Cat: "class 0"
- Compound: "Nc1c(C(=O)Nc2ccccc2)sc2nc3c(cc12)CCCCCC3"
  Cat: "class 1"
- Compound: "COc1cc(NC(=O)c2cccc(-c3cc(=O)c4c(OC)c(OC)c(OC)cc4o3)c2)cc(OC)c1OC"
  Cat: "class 0"
- Compound: "Cc1c2c(cn1Cc1ccccc1)CCc1cn[nH]c1-2"
  Cat: "class 0"
- Compound: "CCCCN1CCN(c2ccc3nc(-c4ccc5nc(-c6ccc(OCC)c(OCC)c6)[nH]c5c4)[nH]c3c2)CC1"
  Cat: "class 0"
- Compound: "O=C1c2ccccc2C(=O)c2cc(Cn3cc[n+](Cc4ccc5ccccc5c4)c3)ccc21"
  Cat: "class 0"
- Compound: "COc1ccc(/C(C)=C(\\c2ccc(Cl)cc2)c2ccc(OCCCN(C)C)cc2)cc1F"
  Cat: "class 0"

* * *

Tested on: SF-539 CNS
Assay: NCI-60 one-dose screen, 48 h (100 = growth as untreated, 0 = no growth, -100 = all killed)
Conditions: 10 µM unless noted
The panel holds about 83,000 compounds, 20% with a hit somewhere; the sample as a whole holds those more often.

- Compound: "O=[N+]([O-])c1ccccc1C(O)Cc1ccc2ccccc2n1 (centres undefined)"
  growth [%]: 98.4
- Compound: "Nc1c(C(=O)c2ccc(Cl)s2)sc2nc3c(cc12)CCCC3"
  growth [%]: 96.8
- Compound: "CCN(CC)CCOc1ccc(/C(=C(\\C)c2ccc(OC)c(F)c2)c2ccc(Cl)cc2)cc1"
  growth [%]: 24.5
- Compound: "COc1cc(CNC(=O)/C=C/C=C/c2ccc3c(c2)OCO3)ccc1OCc1cn(-c2ccc(Cl)c(Cl)c2)nn1"
  growth [%]: 74.4
- Compound: "COc1cc(/C=C/C(=O)c2cccc(-n3cc(-c4ccccc4)[nH]c3=O)c2)cc(OC)c1OC"
  growth [%]: -88.8
- Compound: "CNC(=O)c1cc(Oc2ccc3nc(NC(=O)Nc4cc(C(F)(F)F)cc(C(F)(F)F)c4)sc3c2)ccn1"
  growth [%]: -80
- Compound: "NS(=O)(=O)c1cnccc1-n1ccc(=O)c(S(N)(=O)=O)c1"
  growth [%]: 97.8
- Compound: "O=c1cc(-c2ccc(OCc3ccccc3)cc2)oc2c(I)c(OCc3ccccc3)cc(OCc3ccccc3)c12"
  growth [%]: 100
- Compound: "CCNCCNc1cc(-c2ccc(C#N)cc2)c(C#N)c2nc3ccccc3n12"
  growth [%]: -77.3
- Compound: "CCCc1cc(=O)oc2c3c(c4c(c12)OC(C)(C)C=C4)O[C@@H](C)[C@H](C)C3=O"
  growth [%]: 81
- Compound: "CN(C)S(=O)(=O)n1cnc([C@@H]2[C@@H]3C(=O)OC[C@@H]3C[C@]23N=CN(Cc2ccccc2)C3=O)c1"
  growth [%]: 98.5
- Compound: "Cc1nn(-c2ccccc2)c2c1C(c1ccc([N+](=O)[O-])cc1)C(C#N)=C(N)O2 (centres undefined)"
  growth [%]: 95.9
- Compound: "COc1ccc(C2CC(c3ccccc3)=NN2c2nc(C)c(C(C)=O)s2)cc1 (centres undefined)"
  growth [%]: 94.3
- Compound: "O=C(O)C1C[C@](O)(c2ccc(F)cc2)[C@@H](c2ccc(F)cc2)O1 (some centres undefined)"
  growth [%]: 125
- Compound: "COc1ccc(CN2C(=O)/C(=C\\c3cc(OC)c(OC)c(OC)c3)c3ccccc32)cc1"
  growth [%]: -84.9
- Compound: "Cc1c(C(=O)O[C@H]2[C@@H]3[C@H](C)CC[C@H]3[C@]3(C)O[C@@]2(C2CCCCC2)C[C@H]3OC(=O)CO)ccc2ccccc12"
  growth [%]: 65.6
- Compound: "NS(=O)(=O)Oc1ccc(NC(=O)C23CC4CC(CC(C4)C2)C3)cc1Cl"
  growth [%]: 87.3
- Compound: "COc1ccc(/C(C)=C(\\c2ccc(Cl)cc2)c2ccc(OCCN(C)C)cc2)cc1F"
  growth [%]: 55.2
- Compound: "CC1(C)CC(=O)c2c(ccc(C(=O)C[C@H](N)CO)c2N)O1"
  growth [%]: 23.7
